All values here come from paper PMC10361207.

TESTED TARGET: δ opioid receptor (Homo sapiens)
Construct: host or cells: HEK293, stably transfected; membranes
Sequence (P41143 whole entry): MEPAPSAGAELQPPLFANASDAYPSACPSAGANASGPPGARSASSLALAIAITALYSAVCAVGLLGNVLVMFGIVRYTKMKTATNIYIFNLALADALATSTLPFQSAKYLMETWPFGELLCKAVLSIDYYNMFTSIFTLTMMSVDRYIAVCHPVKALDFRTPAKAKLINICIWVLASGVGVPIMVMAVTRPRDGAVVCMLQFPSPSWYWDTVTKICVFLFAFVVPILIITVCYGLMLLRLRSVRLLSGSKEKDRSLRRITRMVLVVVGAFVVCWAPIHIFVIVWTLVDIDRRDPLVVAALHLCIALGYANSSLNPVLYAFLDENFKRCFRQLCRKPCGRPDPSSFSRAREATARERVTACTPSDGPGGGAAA
TEST DETAILS: Competitive radioligand binding assay, δ opioid
EXPERIMENTAL CONTEXT: 10 μM; [3H]-enkephalin (DPDPE); read-out: Percent displacement, Δ
READOUT KIND: inhibition at 10 µM (%)
Supply the numeric figure in %, leaving out any unit text.

Worked examples, 6 compounds total:
>  <QUERY SMILES>
C=C(C)[C@H]1CC[C@H](C)C[C@@H]1c1c(O)cc(/C=C/c2ccccc2O)cc1O

>  <UNIT SPEC>
%

>  <inhibition at 10 µM>
50.2

$$$$
>  <QUERY SMILES>
C[C@H]1CC[C@H]2[C@H](C1)c1c(O)cc(/C=C/c3ccccc3)cc1OC2(C)C

>  <UNIT SPEC>
%

>  <inhibition at 10 µM>
1.8

$$$$
>  <QUERY SMILES>
C[C@H]1CC[C@H]2[C@H](C1)c1c(O)cc(/C=C/c3ccccc3O)cc1OC2(C)C

>  <UNIT SPEC>
%

>  <inhibition at 10 µM>
4.6

$$$$
>  <QUERY SMILES>
C=C(C)[C@H]1CC[C@H](C)C[C@@H]1c1c(O)cc(/C=C/c2ccccc2)cc1O

>  <UNIT SPEC>
%

>  <inhibition at 10 µM>
43.3

$$$$
>  <QUERY SMILES>
C=C(C)[C@H]1CC[C@H](C)C[C@@H]1c1c(O)cc(-c2cc3ccccc3o2)cc1O

>  <UNIT SPEC>
%

>  <inhibition at 10 µM>
26.6

$$$$
>  <QUERY SMILES>
C[C@@H]1C[C@@H]2c3c(O)cc(-c4cc5ccccc5o4)cc3OC(C)(C)[C@H]2C[C@H]1O

>  <UNIT SPEC>
%

>  <inhibition at 10 µM>
28.2

$$$$

Now consider the entry below.
Find the recorded inhibition at 10 µM belonging to C[C@H]1CC[C@H]2[C@H](C1)c1c(O)cc(-c3cc4ccccc4o3)cc1OC2(C)C and report it. 61.7

###

Tested on: Wnt
TEST DETAILS: Luciferase reporter assay, Wnt, HeLa
Type: cell-based
EXPERIMENTAL CONTEXT: Homo sapiens; HeLa cells; inducer m-wnt3a; dash: not inhibited by more than 40% at 50 µmol/L
READOUT KIND: pIC50
Units for pIC50: none; it is -log10 of a concentration expressed in mol/L.

>  <COMPOUND>
C[C@@H]1C[C@@H]2c3c(O)cc(-c4cc5ccccc5o4)cc3OC(C)(C)[C@H]2C[C@H]1O

>  <TESTED TARGET>
Wnt

>  <READOUT KIND>
pIC50

>  <RECORDED MEASUREMENT>
4.70

$$$$
>  <COMPOUND>
C[C@H]1CC[C@H]2[C@H](C1)c1c(O)cc(/C=C/c3ccccc3O)cc1OC2(C)C

>  <TESTED TARGET>
Wnt

>  <READOUT KIND>
pIC50

>  <RECORDED MEASUREMENT>
4.66

$$$$

Find the recorded pIC50 belonging to C[C@H]1CC[C@H]2[C@H](C1)c1c(O)cc(/C=C/c3ccccc3)cc1OC2(C)C and report it. 4.92

Find the recorded pIC50 belonging to C=C(C)[C@H]1CC[C@H](C)C[C@@H]1c1c(O)cc(/C=C/c2ccccc2)cc1O and report it. 5.46

Find the recorded pIC50 belonging to C=C(C)[C@@H]1CCC(C)=C[C@H]1c1c(O)cc(CCCCC)cc1O [compound 9, cannabidiol, reference compound] and report it. 5.24

Find the recorded pIC50 belonging to C[C@H]1CC[C@H]2[C@H](C1)c1c(O)cc(-c3cc4ccccc4o3)cc1OC2(C)C and report it. 5.04

Find the recorded pIC50 belonging to C=C(C)[C@H]1CC[C@H](C)C[C@@H]1c1c(O)cc(/C=C/c2ccccc2O)cc1O and report it. 5.38

###

System: NF-κB
TEST DETAILS: Luciferase reporter assay, NF-κB, T98G
Assay type: cell-based
EXPERIMENTAL CONTEXT: Homo sapiens; T98G cells; inducer PMA
READOUT KIND: pIC50
Units for pIC50: none; it is -log10 of a concentration expressed in mol/L.

Find the recorded pIC50 belonging to C=C(C)[C@H]1CC[C@H](C)C[C@@H]1c1c(O)cc(/C=C/c2ccccc2O)cc1O [compound 6, machaeridiol B] and report it. 5.40

###

Tested on: Hedgehog
TEST DETAILS: Luciferase reporter assay, Hedgehog, HeLa
Assay type: cell-based, human
EXPERIMENTAL CONTEXT: Homo sapiens; HeLa cells; inducer PMA; dash: not inhibited by more than 40% at 50 µmol/L
READOUT KIND: IC50
Please format your answer as a value with the unit trailing.

Worked examples, 3 molecules total:
>  <QUERY SMILES>
C[C@H]1CC[C@H]2[C@H](C1)c1c(O)cc(/C=C/c3ccccc3)cc1OC2(C)C

>  <RECORDED MEASUREMENT>
8.2 µM

$$$$
>  <QUERY SMILES>
C[C@H]1CC[C@H]2[C@H](C1)c1c(O)cc(/C=C/c3ccccc3O)cc1OC2(C)C

>  <RECORDED MEASUREMENT>
10 µM

$$$$
>  <QUERY SMILES>
C=C(C)[C@H]1CC[C@H](C)C[C@@H]1c1c(O)cc(/C=C/c2ccccc2)cc1O

>  <RECORDED MEASUREMENT>
11 µM

$$$$

Now consider the entry below.
Find the recorded IC50 belonging to C=C(C)[C@H]1CC[C@H](C)C[C@@H]1c1c(O)cc(-c2cc3ccccc3o2)cc1O and report it. 8.8 µM

###

Documented IC50 at 48 h across a set of molecules
TEST DETAILS: Cytotoxicity, Neutral Red, KB
Assay type: cell-based
EXPERIMENTAL CONTEXT: human, KB epidermal carcinoma (oral) cells, Na = not active up to 50 µg/mL

>  <QUERY SMILES>
C=C(C)[C@H]1CC[C@H](C)C[C@@H]1c1c(O)cc(-c2cc3ccccc3o2)cc1O

>  <RECORDED MEASUREMENT>
> 50 µg/mL

$$$$

Find the recorded IC50 at 48 h belonging to C[C@H]1CC[C@H]2[C@H](C1)c1c(O)cc(/C=C/c3ccccc3O)cc1OC2(C)C and report it. > 50 µg/mL

Find the recorded IC50 at 48 h belonging to C=C(C)[C@H]1CC[C@H](C)C[C@@H]1c1c(O)cc(/C=C/c2ccccc2)cc1O and report it. > 50 µg/mL

###

TEST DETAILS: Cytotoxicity, Neutral Red, SK-MEL
Type: cell-based
EXPERIMENTAL CONTEXT: human, SK-MEL malignant melanoma cells, Na = not active up to 50 µg/mL
Method: In vitro cytotoxic activity was determined against five human cancer cell lines—malignant melanoma (SK-MEL), epidermal carcinoma oral (KB), ductal carcinoma breast (BT-549), ovary carcinoma (SKOV-3) and cervical (HeLa) cancer cells—and two non-cancerous kidney cell lines (LLC-PK1 and Vero). […] At the end of the incubation, the cell viability was determined using Neutral Red dye according to a modification of the procedure used by Borenfreund et al.. […]
READOUT KIND: IC50 at 48 h

>  <QUERY SMILES>
C=C(C)[C@H]1CC[C@H](C)C[C@@H]1c1c(O)cc(/C=C/c2ccccc2)cc1O

>  <IC50 at 48 h>
> 50 µg/mL

$$$$
>  <QUERY SMILES>
C=C(C)[C@H]1CC[C@H](C)C[C@@H]1c1c(O)cc(-c2cc3ccccc3o2)cc1O

>  <IC50 at 48 h>
> 50 µg/mL

$$$$

Find the recorded IC50 at 48 h belonging to C[C@H]1CC[C@H]2[C@H](C1)c1c(O)cc(-c3cc4ccccc4o3)cc1OC2(C)C and report it. > 50 µg/mL
